Origin of the recorded values: patent US20220017636A1

Target: T1, SLK peptide complexed with HLA-A*02:01 on T2 cells (human)
T1 construct: whole, on cells
Assay: flow cytometry, peptide-loaded T2 cells;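 further: binding of single-chain Fv antibody constructs, raised in XenoMouse, to peptide-pulsed T2 cells measured by flow cytometry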
observation.type: Signal/background
Give only the figure.

Provide measured Signal/background value, entry: 18179-D7 (scFv, scFv in bacterial lysate, detected with anti-Flag M2) scFv: EVQLLESGGGLVQPGGSLRLSCAASGFTFSNAWMSWVRQAPGKGLEWVGRIKGNTYGGTTDYAAPVKGRFTISRDDSKNTLFLQMNSLKTEDTAVYYCTTPSYSGSYYNYFSVMDVWGQGTTVTVSSGGGGSGGGGSGGGGSELVMTQSPSSLSASVGDRVTITCRTSQSISSYLNWYQQKPGRAPKLLIFAASSLQGGVPSRFSGSGSGTDFTLTISSLQPEDFATYYCQQTYSMPFTFGPGTKVDIK
1.1

Recall and state the measured Signal/background for 18181-G8 (scFv, scFv in bacterial lysate, detected with anti-Flag M2) scFv: EVQLLESGGGLVQPGGSLRLSCAASGFTFSNAWMSWVRQAPGKGLEWVGRIKGNTYGGTTDYAAPVKGRFTISRDDSKNTLFLQMNSLKTEDTAVYYCTTPSNSGSYYNYFSVMDVWGQGTTVTVSSGGGGSGGGGSGGGGSELVMTQSPSSLSASVGDRVTITCRTSQSISSYLNWYQQKPGKAPKLLIYAASSLQSGVPSRFSGSGSGTDFTLTISSLQPEDFATYYCQQTYSMPFTFGGGTKVEIK .
1

Please indicate Signal/background recorded for 18181-F1 (scFv, scFv in bacterial lysate, detected with anti-Flag M2) scFv: EVQLLESGGGLVKPGGSLRLSCAASGFTFSNAWMSWVRQAPGKGLEWVGRIKGNTYGGTTDYAAPVKGRFTISRDDSKNTLFLQMNSLKTEDTAVYYCTTPSYSGSYYNYFSVMDVWGQGTTVTVSSGGGGSGGGGSGGGGSELVMTQSPSSLSASVGDRVTITCRTSQSISSYLNWYQQKPGRAPKLLIFAASSLQGGVPSRFSGSGSGTDFTLTISSLQPEDFATYYCQQTYSSPFTFGPGTKLEIK
1.1
